Give measured MIC80 for each item. Keep answers brief.
Tested on: Candida albicans
Assay: Antifungal activity against Candida albicans after 24 hrs by serial dilution method
Type: functional
The reply must contain the numeric value and, after it, the unit.

Answered cases to consult:
molecule	readout_value
OC(CN1CCC(=NOCc2cccc(C(F)(F)F)c2)CC1)(Cn1cncn1)c1ccc(F)cc1F (racemic)	16 µg/mL
OC(CN1CCC(=NOCc2ccc(C(F)(F)F)cc2)CC1)(Cn1cncn1)c1ccc(F)cc1F (racemic)	16 µg/mL
C[C@@H](c1ncncc1F)[C@](O)(Cn1cncn1)c1ccc(F)cc1F	0.004 µg/mL

Now take the following molecule into account.
Task: What value of MIC80 has been reported for the following molecule? CCCc1ccc(CON=C2CCN(CC(O)(Cn3cncn3)c3ccc(F)cc3F)CC2)cc1 (racemic)
Output: 16 µg/mL
